Assay: melting temperature; fluorescence melt of hairpins on a sequencing array, two-state fit, raised by 9.35 °C to match UV melts
Settings: sodium 0.088 M

- Sequence Data: "GAGTGCGGAAACACACTC (((((.(....).)))))"
  Tm (°C): 47.5
- Sequence Data: "GTTTTTGAAAAAAAAC ((((((....))))))"
  Tm (°C): 43.3
- Sequence Data: "GTAGACGGAAACGCCTAC ((((.((....)).))))"
  Tm (°C): 45.3
- Sequence Data: "GCTTATGGAAACATAAGC (((((((....)))))))"
  Tm (°C): 56
- Sequence Data: "GCAGACGAAAGTCCTGC ((((((....))).)))"
  Tm (°C): 52.9
- Sequence Data: "GGGGTCGGAAACGACCTC (.(((((....))))).)"
  Tm (°C): 61.4
- Sequence Data: "GATCCGAAGTCGGATC ((((((....))))))"
  Tm (°C): 56.2
- Sequence Data: "GCATCGCGAAAGCGTAGC ((..(((....)))..))"
  Tm (°C): 48.5
- Sequence Data: "GTATGCGAAAGCATATAC ((((((....)))..)))"
  Tm (°C): 42.2
- Sequence Data: "GGTGTCGGAAACAACACC (((((.(....).)))))"
  Tm (°C): 45.2
- Sequence Data: "GCTTAGCGAAAGCCCAGC (((..((....))..)))"
  Tm (°C): 33.4
- Sequence Data: "GGTTGCGCGAAAGCGACC (((..(((....))))))"
  Tm (°C): 42.8
- Sequence Data: "GCATTCGAAAGAATGTGC ((((((....)))..)))"
  Tm (°C): 50.6
- Sequence Data: "GGGCAACGAAAGTTTCCC (((.(((....))).)))"
  Tm (°C): 47.4
- Sequence Data: "GTGCAGACGAAAGTCCAC (((..(((....))))))"
  Tm (°C): 37.9
- Sequence Data: "GATCAAACGATTGATC ((((((....))))))"
  Tm (°C): 39.9
- Sequence Data: "GGCAACGGAAACATCGCC (((.(.(....).).)))"
  Tm (°C): 24.5
- Sequence Data: "GTCAGTCGAAAGACGAC (((.(((....))))))"
  Tm (°C): 53.1
- Sequence Data: "GGGTGACGAAAGTCCCC (((.(((....))))))"
  Tm (°C): 58.4
- Sequence Data: "GCGGTTGGCCGC ((((....))))"
  Tm (°C): 64.8
- Sequence Data: "GATGAACGAAAGTTATC (((.(((....))))))"
  Tm (°C): 28.4
- Sequence Data: "GATCGTCTCCACGATC ((((((....))))))"
  Tm (°C): 53.7
- Sequence Data: "GTAGTTGGAAACAACTAC (((((((....)))))))"
  Tm (°C): 56.1
- Sequence Data: "GATGGGGGAAACTCCATC (((((.(....).)))))"
  Tm (°C): 49.2
- Sequence Data: "GTGTTTGGAAACAAATGC (..((((....))))..)"
  Tm (°C): 34.8
- Sequence Data: "GCGAATTATCGC ((((....))))"
  Tm (°C): 47.8
- Sequence Data: "GCGGTAACCGC ((((...))))"
  Tm (°C): 57.5
- Sequence Data: "GCATGCGAAAGCATGTGC ((((((....)))..)))"
  Tm (°C): 64
- Sequence Data: "GTTTCCGGAAACGGAGAC ((.((((....)))).))"
  Tm (°C): 47.6
- Sequence Data: "GGGGATGGAAACGTTCCC (((.(.(....).).)))"
  Tm (°C): 39
